target: ChoKα (Homo sapiens, UniProt P35790); assay: ChoKα activity assay (14C-choline phosphorylation to 14C-PC in cells); format: cell-based; set-up: endogenous in cells; host or cells: MCF7-EV, MCF7-CK+ (stably overexpressing ChoK), MDA-MB-231, 4175-Luc+; settings: MDA-MB-231 cells; analyzed after 2 h; ± SEM, 3 experiments; read-out: IC50 (14C-PC production)
Sequence (P35790 whole entry): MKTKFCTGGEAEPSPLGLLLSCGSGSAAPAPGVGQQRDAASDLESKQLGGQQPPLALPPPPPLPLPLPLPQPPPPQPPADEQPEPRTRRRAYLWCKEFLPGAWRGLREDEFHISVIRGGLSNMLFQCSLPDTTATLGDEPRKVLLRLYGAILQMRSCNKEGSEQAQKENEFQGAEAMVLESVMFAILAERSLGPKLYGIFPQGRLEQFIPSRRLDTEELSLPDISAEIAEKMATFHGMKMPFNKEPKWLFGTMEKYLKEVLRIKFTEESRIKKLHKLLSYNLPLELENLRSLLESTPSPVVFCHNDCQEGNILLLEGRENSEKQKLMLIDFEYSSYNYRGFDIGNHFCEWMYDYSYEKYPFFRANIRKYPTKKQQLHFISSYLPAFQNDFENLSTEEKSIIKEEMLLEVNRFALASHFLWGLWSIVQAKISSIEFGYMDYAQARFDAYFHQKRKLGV
pIC50: −log10 of the molar value.

Molecule	pIC50
CC1(C)C(=C/C=C/C=C/C=C/C2=[N+](CCO)c3ccccc3C2(C)C)N(CCO)c2ccccc21 [JAS239]	5.00

###

target: ChoKα (Homo sapiens); experiment: ChoKα activity assay (14C-choline phosphorylation to 14C-PC in cells); type: cell-based; parameters: endogenous in cells; host or cells: MCF7-EV, MCF7-CK+ (stably overexpressing ChoK), MDA-MB-231, 4175-Luc+; settings: MCF7-CK+ cells; analyzed after 2 h; ± SEM, 3 experiments; read-out: IC50 (14C-PC production)
pIC50: −log10 of the molar value.

Smiles code	pIC50
CC1(C)C(=C/C=C/C=C/C=C/C2=[N+](CCO)c3ccccc3C2(C)C)N(CCO)c2ccccc21	4.99

###

test system: 4175-Luc+ cells; experiment: Cell viability, MTT assay; format: cell-based, human; conditions: 17 h, ± SEM, 3 experiments

Smiles code	EC50, µM
CC1(C)C(=C/C=C/C=C/C=C/C2=[N+](CCO)c3ccccc3C2(C)C)N(CCO)c2ccccc21	35

###

target: ChoKα (Homo sapiens); test: ChoKα activity assay (14C-choline phosphorylation to 14C-PC in cells); assay type: cell-based; design: endogenous in cells; host or cells: MCF7-EV, MCF7-CK+ (stably overexpressing ChoK), MDA-MB-231, 4175-Luc+; settings: MCF7-EV cells; analyzed after 2 h; ± SEM, 3 experiments; read-out: IC50 (14C-PC production)
Measurement label: IC50

Smiles code	Tested system	Measurement label	Observed measurement
CC1(C)C(=C/C=C/C=C/C=C/C2=[N+](CCO)c3ccccc3C2(C)C)N(CCO)c2ccccc21	ChoKα (Homo sapiens)	IC50	11.1 µM
